The measurements presented in this section are drawn from patent US10167262B2.

Tested on: pigweed (Amaranthus retroflexus)
Test: Test A pre-/postemergence greenhouse herbicide test, visual injury rating 0-100
Type: in vivo
Details: Preemergence, 500 g ai/ha
Use 90 as the dividing line for Plant response rating (0 to 100 scale), Pigweed, with the line itself on the Yes side and lower values as No.

Ask | Reported Plant response rating (0 to 100 scale), Pigweed reaches at least 90 for `CCOC(OCC)(c1cccs1)c1c[nH]nc1-c1cc(Cl)cc(Cl)c1` ?
Reply | Yes

Ask | Reported Plant response rating (0 to 100 scale), Pigweed reaches at least 90 for `C=CCn1cc(C(=O)c2cccnc2)c(-c2cc(Cl)cc(Cl)c2)n1` ?
Reply | No

Ask | Reported Plant response rating (0 to 100 scale), Pigweed reaches at least 90 for `N#CCn1cc(C(=O)c2ccccc2)c(-c2cc(Cl)cc(Cl)c2)n1` ?
Reply | No

Ask | Reported Plant response rating (0 to 100 scale), Pigweed reaches at least 90 for `O=C(c1ccccc1)c1cn(S(=O)(=O)C(F)(F)F)nc1-c1cc(Cl)cc(Cl)c1` ?
Reply | Yes

Ask | Reported Plant response rating (0 to 100 scale), Pigweed reaches at least 90 for `O=C(c1ccccc1)c1cn(C(=O)C2CC2)nc1-c1cc(Cl)cc(Cl)c1` ?
Reply | No

Ask | Reported Plant response rating (0 to 100 scale), Pigweed reaches at least 90 for `Cn1cc(C(=O)c2cccnc2)c(-c2cc(Cl)cc(Cl)c2)n1` ?
Reply | No

Ask | Reported Plant response rating (0 to 100 scale), Pigweed reaches at least 90 for `CCn1cc(C(=O)c2cccnc2)c(-c2cc(Cl)cc(Cl)c2)n1` ?
Reply | No

Ask | Reported Plant response rating (0 to 100 scale), Pigweed reaches at least 90 for `Clc1cc(Cl)cc(-c2n[nH]cc2C2(c3ccccc3)SCCCS2)c1` ?
Reply | No

Ask | Reported Plant response rating (0 to 100 scale), Pigweed reaches at least 90 for `O=C(c1cncc(F)c1)c1c[nH]nc1-c1cc(F)cc(Cl)c1` ?
Reply | Yes

Ask | Reported Plant response rating (0 to 100 scale), Pigweed reaches at least 90 for `O=C(c1cncc(F)c1)c1c[nH]nc1-c1cc(F)cc(F)c1` ?
Reply | Yes
